Below, each of the compounds is paired with its reported IC50 value.
Sequence of the target: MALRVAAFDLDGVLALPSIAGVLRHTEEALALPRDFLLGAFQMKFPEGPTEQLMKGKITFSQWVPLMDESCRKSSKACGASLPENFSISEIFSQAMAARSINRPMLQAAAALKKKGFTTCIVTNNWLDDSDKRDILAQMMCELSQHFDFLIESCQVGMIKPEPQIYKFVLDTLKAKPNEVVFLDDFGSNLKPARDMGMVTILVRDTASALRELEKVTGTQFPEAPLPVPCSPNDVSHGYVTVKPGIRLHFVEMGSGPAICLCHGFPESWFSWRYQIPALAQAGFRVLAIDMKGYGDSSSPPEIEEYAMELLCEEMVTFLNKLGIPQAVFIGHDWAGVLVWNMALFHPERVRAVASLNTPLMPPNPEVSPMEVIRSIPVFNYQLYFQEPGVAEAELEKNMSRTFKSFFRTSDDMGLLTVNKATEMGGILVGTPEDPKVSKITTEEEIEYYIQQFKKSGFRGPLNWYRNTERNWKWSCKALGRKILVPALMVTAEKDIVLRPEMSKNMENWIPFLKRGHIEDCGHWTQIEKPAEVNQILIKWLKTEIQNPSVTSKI
Property: IC50 (nM)

| Compound Smiles | Property | Readout Value |
| --- | --- | --- |
| O=C(Nc1ccc(-c2cncc3ccccc23)cc1)C1CCN(S(=O)(=O)c2ccccc2Cl)CC1 | IC50 | 0.8 |
| O=C(Nc1ccc(-c2cccc3ccncc23)cc1)C1CCN(S(=O)(=O)c2ccccc2Cl)CC1 | IC50 | 4.7 |
| O=C(Nc1ccc(-c2ccccn2)cc1)C1CCN(S(=O)(=O)c2ccccc2Cl)CC1 | IC50 | 1.9 |
| O=C(Nc1ccc(-c2ccncc2)cc1)C1CCN(S(=O)(=O)c2ccccc2Cl)CC1 | IC50 | 3.1 |
| O=C(Nc1ccc(-c2cccnc2)cc1)C1CCN(S(=O)(=O)c2ccccc2Cl)CC1 | IC50 | 2.8 |
| O=C(Nc1ccc(-c2nccc3ccccc23)cc1)C1CCN(S(=O)(=O)c2ccccc2Cl)CC1 | IC50 | 3.7 |

###

Quick record: IC50, Mouse sEH (Mus musculus, UniProt P34914).
Property: IC50

| Compound Smiles | Assay Target | Property | Readout Value |
| --- | --- | --- | --- |
| O=C(Nc1ccc(-c2ccc3cnccc3c2)cc1)C1CCN(S(=O)(=O)c2ccccc2Cl)CC1 | Mouse sEH (Mus musculus, UniProt P34914) | IC50 | 51.3 nM |
| Cc1cncc(-c2ccc(NC(=O)C3CCN(S(=O)(=O)c4ccccc4Cl)CC3)cc2)c1 | Mouse sEH (Mus musculus, UniProt P34914) | IC50 | 175 nM |
| Cc1cccc(-c2ccc(NC(=O)C3CCN(S(=O)(=O)c4ccccc4Cl)CC3)cc2)n1 | Mouse sEH (Mus musculus, UniProt P34914) | IC50 | 226 nM |
| Cc1ccnc(-c2ccc(NC(=O)C3CCN(S(=O)(=O)c4ccccc4Cl)CC3)cc2)c1 | Mouse sEH (Mus musculus, UniProt P34914) | IC50 | 499 nM |
| O=C(Nc1ccc(-c2cncc3ccccc23)cc1)C1CCN(S(=O)(=O)c2ccccc2Cl)CC1 | Mouse sEH (Mus musculus, UniProt P34914) | IC50 | 22.3 nM |
| O=C(Nc1ccc(-c2cc3ccccc3cn2)cc1)C1CCN(S(=O)(=O)c2ccccc2Cl)CC1 | Mouse sEH (Mus musculus, UniProt P34914) | IC50 | 236 nM |
| O=C(Nc1ccc(-c2cccc3ccncc23)cc1)C1CCN(S(=O)(=O)c2ccccc2Cl)CC1 | Mouse sEH (Mus musculus, UniProt P34914) | IC50 | 69 nM |
| O=C(Nc1ccc(-c2ccncc2)cc1)C1CCN(S(=O)(=O)c2ccccc2Cl)CC1 | Mouse sEH (Mus musculus, UniProt P34914) | IC50 | 133 nM |

###

Biological target: UniProt P34913

| Compound Smiles | Readout Unit | IC50 |
| --- | --- | --- |
| O=C(Nc1ccc(-c2ccc3cnccc3c2)cc1)C1CCN(S(=O)(=O)c2ccccc2Cl)CC1 | nM | 1.8 |
| O=C(Nc1ccc(-c2cncc3ccccc23)cc1)C1CCN(S(=O)(=O)c2ccccc2Cl)CC1 | nM | 0.4 |
| O=C(Nc1ccc(-c2cccc3ccncc23)cc1)C1CCN(S(=O)(=O)c2ccccc2Cl)CC1 | nM | 1.4 |
| Cc1cc(-c2ccc(NC(=O)C3CCN(S(=O)(=O)c4ccccc4Cl)CC3)cc2)ccn1 | nM | 5.8 |
| O=C(Nc1ccc(-c2nccc3ccccc23)cc1)C1CCN(S(=O)(=O)c2ccccc2Cl)CC1 | nM | 3.7 |

###

Test: Microsomal stability assay in human liver microsomes
Format: in vitro ADME
Details: pH 7.4
Property: half-life at 1 µM (min)

| Compound Smiles | Property | Readout Value |
| --- | --- | --- |
| O=C(Nc1ccc(-c2ccc3ccncc3c2)cc1)C1CCN(S(=O)(=O)c2ccccc2Cl)CC1 | half-life at 1 µM | 58 |

###

Molecular target: Rat sEH (Rattus norvegicus, UniProt P80299)
Sequence (P80299 1-554): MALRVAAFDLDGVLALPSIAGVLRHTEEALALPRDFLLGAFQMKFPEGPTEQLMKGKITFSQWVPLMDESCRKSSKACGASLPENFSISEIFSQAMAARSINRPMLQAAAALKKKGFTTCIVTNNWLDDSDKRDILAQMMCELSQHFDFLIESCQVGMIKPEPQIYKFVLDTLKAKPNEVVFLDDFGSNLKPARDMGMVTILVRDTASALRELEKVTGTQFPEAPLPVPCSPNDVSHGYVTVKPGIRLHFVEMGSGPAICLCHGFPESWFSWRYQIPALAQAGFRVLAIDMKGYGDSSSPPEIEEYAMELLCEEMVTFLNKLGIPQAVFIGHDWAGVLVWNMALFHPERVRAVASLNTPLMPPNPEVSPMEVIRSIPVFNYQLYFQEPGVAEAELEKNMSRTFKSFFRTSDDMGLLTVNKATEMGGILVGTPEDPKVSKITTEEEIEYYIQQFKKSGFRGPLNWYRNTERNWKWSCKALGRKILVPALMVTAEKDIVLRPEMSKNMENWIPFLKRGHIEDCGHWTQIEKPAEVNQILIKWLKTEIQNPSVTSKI
pIC50: −log10 of the molar value.

| Compound Smiles | pIC50 |
| --- | --- |
| Cc1cc(-c2ccc(NC(=O)C3CCN(S(=O)(=O)c4ccccc4Cl)CC3)cc2)ccn1 | 8.44 |
| O=C(Nc1ccc(-c2ccc3ccncc3c2)cc1)C1CCN(S(=O)(=O)c2ccccc2Cl)CC1 | 9.00 |
| O=C(Nc1ccc(-c2cc3ccccc3cn2)cc1)C1CCN(S(=O)(=O)c2ccccc2Cl)CC1 | 7.94 |
| Cc1ccnc(-c2ccc(NC(=O)C3CCN(S(=O)(=O)c4ccccc4Cl)CC3)cc2)c1 | 7.99 |
| O=C(Nc1ccc(-c2cccc3cnccc23)cc1)C1CCN(S(=O)(=O)c2ccccc2Cl)CC1 | 8.66 |
| Cc1cccc(-c2ccc(NC(=O)C3CCN(S(=O)(=O)c4ccccc4Cl)CC3)cc2)n1 | 8.80 |
| O=C(Nc1ccc(-c2ccc3cnccc3c2)cc1)C1CCN(S(=O)(=O)c2ccccc2Cl)CC1 | 9.30 |
| Cc1cncc(-c2ccc(NC(=O)C3CCN(S(=O)(=O)c4ccccc4Cl)CC3)cc2)c1 | 8.96 |

###

Target: Human sEH (Homo sapiens)
Sequence (P34913 whole entry): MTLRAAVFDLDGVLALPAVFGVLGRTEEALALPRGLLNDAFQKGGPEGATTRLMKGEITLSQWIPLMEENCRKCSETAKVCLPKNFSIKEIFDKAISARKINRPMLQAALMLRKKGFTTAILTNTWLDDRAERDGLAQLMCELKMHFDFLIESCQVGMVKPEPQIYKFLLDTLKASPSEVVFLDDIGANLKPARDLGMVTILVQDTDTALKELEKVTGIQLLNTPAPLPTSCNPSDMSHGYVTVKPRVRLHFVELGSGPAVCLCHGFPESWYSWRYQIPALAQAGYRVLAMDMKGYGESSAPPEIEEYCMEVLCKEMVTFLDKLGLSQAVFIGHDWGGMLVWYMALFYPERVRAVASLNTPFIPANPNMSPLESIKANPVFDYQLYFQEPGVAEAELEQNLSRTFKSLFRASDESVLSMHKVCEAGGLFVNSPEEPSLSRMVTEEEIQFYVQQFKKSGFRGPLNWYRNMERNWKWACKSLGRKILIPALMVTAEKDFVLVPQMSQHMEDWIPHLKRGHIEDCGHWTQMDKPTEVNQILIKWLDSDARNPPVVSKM
pIC50: −log10 of the molar value.
Answer F if pIC50 is under 9, and T if it is 9 or more.

| Compound Smiles | Cat |
| --- | --- |
| Cc1ccnc(-c2ccc(NC(=O)C3CCN(S(=O)(=O)c4ccccc4Cl)CC3)cc2)c1 | F |
| O=C(Nc1ccc(-c2cc3ccccc3cn2)cc1)C1CCN(S(=O)(=O)c2ccccc2Cl)CC1 | F |
| Cc1cncc(-c2ccc(NC(=O)C3CCN(S(=O)(=O)c4ccccc4Cl)CC3)cc2)c1 | F |
| O=C(Nc1ccc(-c2cccc3cnccc23)cc1)C1CCN(S(=O)(=O)c2ccccc2Cl)CC1 | T |
| Cc1cccc(-c2ccc(NC(=O)C3CCN(S(=O)(=O)c4ccccc4Cl)CC3)cc2)n1 | F |
| O=C(Nc1ccc(-c2ccc3ccncc3c2)cc1)C1CCN(S(=O)(=O)c2ccccc2Cl)CC1 | F |

###

Assay: physchem
Details: sodium phosphate buffer, 24 °C, pH 7.4, aqueous buffer, kinetic from dmso stock

| Compound Smiles | solubility [µM] |
| --- | --- |
| Cc1cc(-c2ccc(NC(=O)C3CCN(S(=O)(=O)c4ccccc4Cl)CC3)cc2)ccn1 | 53 |
| O=C(Nc1ccc(-c2cccc3cnccc23)cc1)C1CCN(S(=O)(=O)c2ccccc2Cl)CC1 | 40 |
| O=C(Nc1ccc(-c2cccc3ccncc23)cc1)C1CCN(S(=O)(=O)c2ccccc2Cl)CC1 | 65.6 |
| Cc1ccnc(-c2ccc(NC(=O)C3CCN(S(=O)(=O)c4ccccc4Cl)CC3)cc2)c1 | 36.4 |
| O=C(Nc1ccc(-c2cccnc2)cc1)C1CCN(S(=O)(=O)c2ccccc2Cl)CC1 | 51.1 |
| Cc1cncc(-c2ccc(NC(=O)C3CCN(S(=O)(=O)c4ccccc4Cl)CC3)cc2)c1 | 49.4 |
| O=C(Nc1ccc(-c2nccc3ccccc23)cc1)C1CCN(S(=O)(=O)c2ccccc2Cl)CC1 | 56 |
| O=C(Nc1ccc(-c2ccccn2)cc1)C1CCN(S(=O)(=O)c2ccccc2Cl)CC1 | 66.7 |
| O=C(Nc1ccc(-c2ccncc2)cc1)C1CCN(S(=O)(=O)c2ccccc2Cl)CC1 | 50.9 |
| O=C(Nc1ccc(-c2cncc3ccccc23)cc1)C1CCN(S(=O)(=O)c2ccccc2Cl)CC1 | 49.2 |
| O=C(Nc1ccc(-c2ccc3cnccc3c2)cc1)C1CCN(S(=O)(=O)c2ccccc2Cl)CC1 | 55.8 |
| Cc1cccc(-c2ccc(NC(=O)C3CCN(S(=O)(=O)c4ccccc4Cl)CC3)cc2)n1 | 43.4 |
| O=C(Nc1ccc(-c2ccc3ccncc3c2)cc1)C1CCN(S(=O)(=O)c2ccccc2Cl)CC1 | 54.4 |
| O=C(Nc1ccc(-c2cc3ccccc3cn2)cc1)C1CCN(S(=O)(=O)c2ccccc2Cl)CC1 | 51.6 |

Every entry's value here was drawn from paper PMC12018053.
